Listing of recorded viability, T/C by entry.
Tested on: 699152-130-R-J1-PDC complex spheroid viability
Test: Anticancer human tumor 699152-130-R-J1-PDC patient-derived pancreatic carcinoma cell line growth inhibition [POLQ]
Conditions: second compound 0.0316 µM; first compound 0.01 µM; active compounds read low
Number only, in %; omit the unit.

- COMPOUND: "COc1cccc(OCCCN)c1-c1cc(Nc2cnc(C#N)cn2)n[nH]1 + Cc1cccc(N(C)C(=O)C2C(O)CCN2c2nc(C)cc(C(F)(F)F)c2C#N)c1"
  STUDY TARGET: "699152-130-R-J1-PDC complex spheroid viability"
  viability, T/C [%]: 75.7

## Task // returns reported viability, T/C for input COc1cccc(OCCCN)c1-c1cc(Nc2cnc(C#N)cn2)n[nH]1 + Nc1ccc(C#CCN(C(=O)Cc2ncc(C(F)(F)F)cc2C(F)(F)F)c2ccc(F)cc2)nn1
## Result 101

## Task // returns reported viability, T/C for input CCc1c2c(nc3ccc(O)cc13)-c1cc3c(c(=O)n1C2)COC(=O)[C@]3(O)CC + Nc1ccc(C#CCN(C(=O)Cc2ncc(C(F)(F)F)cc2C(F)(F)F)c2ccc(F)cc2)nn1
## Result 55.2

## Task // returns reported viability, T/C for input CC[C@@]1(O)C(=O)OCc2c1cc1n(c2=O)Cc2cc3c(CN(C)C)c(O)ccc3nc2-1 + Nc1ccc(C#CCN(C(=O)Cc2ncc(C(F)(F)F)cc2C(F)(F)F)c2ccc(F)cc2)nn1
## Result 91.8

## Task // returns reported viability, T/C for input C=CCn1c(=O)c2cnc(Nc3ccc(N4CCN(C)CC4)cc3)nc2n1-c1cccc(C(C)(C)O)n1 + Nc1ccc(C#CCN(C(=O)Cc2ncc(C(F)(F)F)cc2C(F)(F)F)c2ccc(F)cc2)nn1
## Result 100

## Task // returns reported viability, T/C for input Cn1ncnc1[C@H]1c2n[nH]c(=O)c3cc(F)cc(c23)N[C@@H]1c1ccc(F)cc1 + Nc1ccc(C#CCN(C(=O)Cc2ncc(C(F)(F)F)cc2C(F)(F)F)c2ccc(F)cc2)nn1
## Result 97.1

* * *

Listing of recorded viability, T/C by entry.
Test system: 699152-130-R-J1-PDC complex spheroid viability
Experiment: Anticancer human tumor 699152-130-R-J1-PDC cell line growth inhibition [POLQ];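 note: spheroids exposed to agents for 7 days before viability reading; percent of DMSO vehicle control viability so 100% = vehicle and 0% = no viable signal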
Conditions: second compound 3.16 µM; first compound 0.1 µM; active compounds read low

Observe how each entry below is paired with its result.
- MOLECULE: "CCc1cc2c(N3CCc4c(cc(Cn5ccnc5)cc4-c4cn(C)nc4C(F)(F)F)C3=O)ccnc2c(OC)n1 + COC1C(OC(N)=O)C(O)C(Oc2ccc3c(O)c(NC(=O)c4ccc(O)c(CC=C(C)C)c4)c(=O)oc3c2C)OC1(C)C"
  viability, T/C: "91.4%"
- MOLECULE: "O=C(Nc1ccc(O)c(NS(=O)(=O)c2ccc(F)cc2)c1)c1ccc(-c2ccccc2)cc1 + COC1C(OC(N)=O)C(O)C(Oc2ccc3c(O)c(NC(=O)c4ccc(O)c(CC=C(C)C)c4)c(=O)oc3c2C)OC1(C)C"
  viability, T/C: "111%"
- MOLECULE: "CC(C)n1c(=O)n(C)c2cnc3cc(F)c(-c4ccc(OCCCN5CCCCC5)nc4)cc3c21 + Cc1cccc(N(C)C(=O)C2C(O)CCN2c2nc(C)cc(C(F)(F)F)c2C#N)c1"
  viability, T/C: "116%"
- MOLECULE: "C#Cc1c(F)ccc2cc(O)cc(-c3ncc4c(N5CC6CCC(C5)N6)nc(OCC56CCCN5CC(F)C6)nc4c3F)c12 (configuration not stated) + Nc1ccc(C#CCN(C(=O)Cc2ncc(C(F)(F)F)cc2C(F)(F)F)c2ccc(F)cc2)nn1"
  viability, T/C: "16.9%"

## Task // returns reported viability, T/C for input CC1COCCN1c1cc(-c2ccnn2C)c2ccnc(-c3ccn[nH]3)c2n1 (configuration not stated) + COC1C(OC(N)=O)C(O)C(Oc2ccc3c(O)c(NC(=O)c4ccc(O)c(CC=C(C)C)c4)c(=O)oc3c2C)OC1(C)C
## Result 85.3%

## Task // returns reported viability, T/C for input COc1cc2cc(C(=O)CCC(=O)O)sc2cc1OC + Nc1ccc(C#CCN(C(=O)Cc2ncc(C(F)(F)F)cc2C(F)(F)F)c2ccc(F)cc2)nn1
## Result 122%

## Task // returns reported viability, T/C for input Nc1ccn(C2OC(CO)C(O)C2(F)F)c(=O)n1 (configuration not stated) + COC1C(OC(N)=O)C(O)C(Oc2ccc3c(O)c(NC(=O)c4ccc(O)c(CC=C(C)C)c4)c(=O)oc3c2C)OC1(C)C
## Result 55.6%
